Listed below: clint values for each entry.
assay: Hepatic microsomal stability, HLM; format: in vitro ADME, human; conditions: In vitro human liver microsomal stability
recorded-metric: clint (µL/min/mg)

compound	experimental-value
Cn1ncc(-c2cc3c(N[C@@H](c4ccc5c(c4)OCCO5)C(C)(C)C)ncnc3[nH]2)c1C#N (racemic)	85.0
CC(C)[C@@H](Nc1ncnc2[nH]c(-c3cnn(C)c3C#N)cc12)c1ccc2c(n1)NC(=O)CO2 (single isomer, unassigned) [ASAP-0011180]	51.0
CNC(=O)c1c[nH]c2ncnc(N[C@H](c3ccc4c(c3)S(=O)(=O)CCC4)C(C)C)c12 (single isomer, unassigned) [ASAP-0011153]	258.0
CC(C)[C@@H](Nc1ncnc2[nH]c(-c3cnn(CC(N)=O)c3)cc12)c1ccc2c(n1)OCCO2 (single isomer, unassigned) [ASAP-0012315]	18.0
CNCc1cc(-c2cc3c(N[C@@H](c4ccc5c(c4)S(=O)(=O)CCC5)C(C)C)ncnc3[nH]2)co1 [ASAP-0011176]	133.0
CNC(=O)c1c[nH]c2ncnc(N[C@H](c3ccc4c(c3)NC(=O)CO4)C(C)C)c12 (racemic)	86.0
COc1ccc([C@H](CC(=O)O)NC(=O)c2ncnc3[nH]ccc23)cc1 (racemic)	7.0
CC(C)(C)[C@H](Nc1ncnc2[nH]c(-c3cnn(CC(N)=O)c3)cc12)c1ccc2c(c1)OCCO2 (racemic) [ASAP-0008581]	133.0
C[C@H](C(=O)O)[C@@H](NC(=O)c1ncnc2[nH]ccc12)c1ccc(Br)cc1	3.0
CCNC(=O)c1cc2c(N[C@@H](c3ccc4c(c3)S(=O)(=O)NCC4)C(C)C)ncnc2[nH]1	85.0
CC(C)[C@@H](Nc1ncnc2[nH]c(-c3cncc(S(C)(=O)=O)c3)cc12)c1ccc2c(c1)S(=O)(=O)CCC2	635.0
CC(C)[C@@H](Nc1ncnc2[nH]c(-c3cnn(C)c3C#N)cc12)c1ccc2c(c1)OCCO2 (racemic) [ASAP-0008275]	74.0
CC(C)[C@H](Nc1ncnc(N)c1Cl)c1ccc2c(c1)S(=O)(=O)CCC2 (racemic)	79.0
CNC(=O)c1cc2c(N[C@H](c3ccc4c(c3)S(=O)(=O)CCC4)C(C)C)ncnc2[nH]1 (single isomer, unassigned)	67.0
CC(C)[C@H](Nc1ncnc2[nH]c(-c3cnn(CC(=O)N(C)C)c3)cc12)c1ccc2c(c1)OCCO2 (single isomer, unassigned) [ASAP-0013837]	108.0
CCNC(=O)c1cc2c(N[C@H](c3ccc4c(c3)OCCO4)C(C)C)ncnc2[nH]1 [ASAP-0013824]	67.0
CC(C)[C@H](Nc1ncnc2[nH]c(-c3cnn(CC(=O)N(C)C)c3)cc12)c1ccc2c(c1)OCCO2 (single isomer, unassigned) [ASAP-0013833]	500.0
CC(C)[C@@H](Nc1ncnc2[nH]cc(C(=O)NC3CC3)c12)c1ccc2c(c1)S(=O)(=O)CCC2	409.0
CC(C)[C@H](Nc1ncnc2[nH]c(C(=O)N[C@@H]3CCN(C)C3)cc12)c1ccc2c(c1)S(=O)(=O)CCC2	3.0
CC(C)[C@@H](Nc1ncnc2[nH]c(-c3cnn(CC(N)=O)c3)cc12)c1ccc2c(c1)S(=O)(=O)CCC2	115.0
CC(C)[C@@H](Nc1ncnc2[nH]c(-c3cnn(CC(N)=O)c3)cc12)c1ccc2c(n1)OCCO2 [ASAP-0008646]	14.0
CC(C)[C@H](Nc1ncnc2[nH]c(-c3cnn(C)c3C#N)cc12)c1ccc2c(c1)NC(=O)CO2 (racemic) [ASAP-0008576]	100.0
CNC(=O)c1cc2c(N[C@@H](c3ccc4c(c3)NC(=O)CO4)C(C)C)ncnc2[nH]1 [ASAP-0008571]	52.0
CC(C)[C@H](Nc1ncnc2[nH]c(-c3cnn(C)c3C#N)cc12)c1ccc2c(n1)OCCO2	17.0
CC(C)[C@H](Nc1ncnc2[nH]c(-c3cnn(C)c3C#N)cc12)c1ccc2c(n1)NC(=O)CO2 (single isomer, unassigned)	137.0
CC(C)[C@@H](Nc1ncnc2[nH]c(-c3cnn(C)c3C#N)cc12)c1ccc2c(n1)NC(=O)CO2 [ASAP-0008644]	70.0
CC(C)[C@@H](Nc1ncnc2[nH]c(-c3cnn(C)c3C#N)cc12)c1ccc2c(c1)S(=O)(=O)CCC2 (single isomer, unassigned) [ASAP-0011147]	516.0

----------
This section presents molecules with their documented microsomal CLint values.
experiment: Hepatic microsomal stability, MLM; assay type: in vitro ADME; details: mouse, liver microsomes, In vitro mouse liver microsomal stability

molecule	microsomal CLint
CC(C)C(Nc1ncnc2[nH]ccc12)c1ccc2c(c1)NC(=O)CO2 (stereo not drawn) [ASAP-0008431]	80 µL/min/mg
CC(C)C(Nc1ncnc2[nH]ccc12)c1ccc2c(c1)S(=O)(=O)CCC2 (stereo not drawn) [ASAP-0008327]	138 µL/min/mg
CCNC(=O)c1cc2c(NC(c3ccc4c(c3)S(=O)(=O)CCC4)C(C)C)ncnc2[nH]1 (stereo not drawn) [ASAP-0012349]	54 µL/min/mg

----------
molecular target: SARS-CoV-2 nsp3-mac1 (Severe acute respiratory syndrome coronavirus 2, UniProt P0DTD1); assay: biochemical; format: biochemical; settings: SARS-CoV-2 nsp3 macrodomain TR-FRET single point; concentration 99.5 uM; n=2

chemical-structure	perc_inhibition_mean / %
CC(C)c1c[nH]nc1NC(=O)c1ccc(NC(=O)Nc2ccccc2)cc1	8.502
Cc1nc(C(=O)N2CCC(c3ccn4ncc(C(=O)N5CCCCC5)c4c3)CC2)c(=O)[nH]c1C	44.216
Cn1cnc(C(=O)N(CCC(=O)N2CCNCC2)Cc2cccc(Cl)c2)n1	-0.25
O=C(Nc1ccccc1)Nc1ccc(C(=O)Nc2nnc(C(F)(F)F)[nH]2)cc1	-1.459
O=C(Nc1ccccc1)Nc1ccc(C(=O)Nc2ncccc2F)cc1	10.201
O=C(Nc1ccccc1)Nc1ccc(C(=O)NCCc2cccnc2)cc1	10.372
O=C(NCc1cn[nH]c1)c1cnn2ccc(C3CCN(C(=O)c4ccccc4)CC3)cc12	-4.505
Cc1nccc(C(=O)N2CCC(c3ccn4ncc(C(=O)N5CCCCC5)c4c3)CC2)n1	27.369

----------
molecular target: SARS-CoV-2 nsp3-mac1 (Severe acute respiratory syndrome coronavirus 2); experiment: biochemical; conditions: TR-FRET dose response curve fit
# hill_slope values compiled below
recorded-metric: hill_slope

compound	experimental-value
O=C(Nc1ccccc1)Nc1ccc(C(=O)NC2c3cccc(O)c3CC2C(=O)O)cc1 (stereo not shown) [ASAP-0000132]	1.06
O=C(OCc1cccc(Cl)n1)c1ncnc2[nH]ccc12 [ASAP-0000193]	1.685
OC[C@@H](Nc1ncnc2[nH]c(I)cc12)c1ccccc1 [ASAP-0000197]	1.082
O=C(c1cccc(Br)c1)N1CCC(c2ccn3ncc(C(=O)N4CCCCC4)c3c2)CC1 [ASAP-0000191]	0.907

----------
experiment: Hepatic microsomal stability, HLM; type: in vitro ADME, human; details: In vitro human liver microsomal stability

compound	perc_remaining (%)
CC(C)[C@H](Nc1ncnc2[nH]c(-c3cnn(CC(=O)N(C)C)c3)cc12)c1ccc2c(c1)S(=O)(=O)CCC2	22.0
CC(C)[C@@H](Nc1ncnc2[nH]cc(C(=O)NC3CC3)c12)c1ccc2c(c1)S(=O)(=O)CCC2	0.0
CC(C)[C@H](Nc1ncnc2[nH]c(-c3cnn(C)c3C#N)cc12)c1ccc2c(c1)NC(=O)CO2 (racemic) [ASAP-0008576]	18.0
CC(C)[C@@H](Nc1ncnc2[nH]c(-c3cncc(S(C)(=O)=O)c3)cc12)c1ccc2c(c1)S(=O)(=O)CCC2	1.0
CNC(=O)c1cc2c(N[C@@H](c3ccc4c(c3)S(=O)(=O)CCC4)C(C)C)ncnc2[nH]1 (single isomer, unassigned) [ASAP-0012346]	0.0
CC(C)[C@H](Nc1ncnc2[nH]c(-c3cnn(C)c3C#N)cc12)c1ccc2c(c1)OCCO2	1.0
CC(C)[C@@H](Nc1ncnc2[nH]c(-c3cnn(C)c3C#N)cc12)c1ccc2c(c1)OCCO2 [ASAP-0011033]	46.0
CCNC(=O)c1cc2c(NC(c3ccc4c(c3)S(=O)(=O)CCC4)C(C)C)ncnc2[nH]1 (centres unmarked)	0.0
CNC(=O)c1cccc(-c2cc3c(N[C@@H](c4ccc5c(c4)S(=O)(=O)CCC5)C(C)C)ncnc3[nH]2)c1	0.0
CCNC(=O)c1cc2c(N[C@H](c3ccc4c(c3)OCCO4)C(C)C)ncnc2[nH]1 [ASAP-0013824]	32.0
CC(C)[C@@H](Nc1ncnc2[nH]c(-c3ccc4nnn(C)c4c3)cc12)c1ccc2c(c1)S(=O)(=O)CCC2	0.0
CC(C)[C@@H](Nc1ncnc2[nH]c(-c3cnn(CCC(N)=O)c3)cc12)c1ccc2c(c1)OCCO2	19.0
CC(C)[C@@H](Nc1ncnc2[nH]c(-c3cnn(C)c3C#N)cc12)c1ccc2c(c1)S(=O)(=O)CCC2 (single isomer, unassigned) [ASAP-0011147]	0.0
CC(C)[C@H](Nc1ncnc2[nH]c(-c3cnn(CC(N)=O)c3)cc12)c1ccc2c(c1)S(=O)(=O)CCC2 (single isomer, unassigned) [ASAP-0011428]	2.0
